Cited source: ChEMBL document CHEMBL2412957

- TARGET_OR_TEST_SYSTEM: Voltage-dependent N-type calcium channel subunit alpha-1B (Homo sapiens, UniProt Q00975)
- Sequence (Q00975 whole entry): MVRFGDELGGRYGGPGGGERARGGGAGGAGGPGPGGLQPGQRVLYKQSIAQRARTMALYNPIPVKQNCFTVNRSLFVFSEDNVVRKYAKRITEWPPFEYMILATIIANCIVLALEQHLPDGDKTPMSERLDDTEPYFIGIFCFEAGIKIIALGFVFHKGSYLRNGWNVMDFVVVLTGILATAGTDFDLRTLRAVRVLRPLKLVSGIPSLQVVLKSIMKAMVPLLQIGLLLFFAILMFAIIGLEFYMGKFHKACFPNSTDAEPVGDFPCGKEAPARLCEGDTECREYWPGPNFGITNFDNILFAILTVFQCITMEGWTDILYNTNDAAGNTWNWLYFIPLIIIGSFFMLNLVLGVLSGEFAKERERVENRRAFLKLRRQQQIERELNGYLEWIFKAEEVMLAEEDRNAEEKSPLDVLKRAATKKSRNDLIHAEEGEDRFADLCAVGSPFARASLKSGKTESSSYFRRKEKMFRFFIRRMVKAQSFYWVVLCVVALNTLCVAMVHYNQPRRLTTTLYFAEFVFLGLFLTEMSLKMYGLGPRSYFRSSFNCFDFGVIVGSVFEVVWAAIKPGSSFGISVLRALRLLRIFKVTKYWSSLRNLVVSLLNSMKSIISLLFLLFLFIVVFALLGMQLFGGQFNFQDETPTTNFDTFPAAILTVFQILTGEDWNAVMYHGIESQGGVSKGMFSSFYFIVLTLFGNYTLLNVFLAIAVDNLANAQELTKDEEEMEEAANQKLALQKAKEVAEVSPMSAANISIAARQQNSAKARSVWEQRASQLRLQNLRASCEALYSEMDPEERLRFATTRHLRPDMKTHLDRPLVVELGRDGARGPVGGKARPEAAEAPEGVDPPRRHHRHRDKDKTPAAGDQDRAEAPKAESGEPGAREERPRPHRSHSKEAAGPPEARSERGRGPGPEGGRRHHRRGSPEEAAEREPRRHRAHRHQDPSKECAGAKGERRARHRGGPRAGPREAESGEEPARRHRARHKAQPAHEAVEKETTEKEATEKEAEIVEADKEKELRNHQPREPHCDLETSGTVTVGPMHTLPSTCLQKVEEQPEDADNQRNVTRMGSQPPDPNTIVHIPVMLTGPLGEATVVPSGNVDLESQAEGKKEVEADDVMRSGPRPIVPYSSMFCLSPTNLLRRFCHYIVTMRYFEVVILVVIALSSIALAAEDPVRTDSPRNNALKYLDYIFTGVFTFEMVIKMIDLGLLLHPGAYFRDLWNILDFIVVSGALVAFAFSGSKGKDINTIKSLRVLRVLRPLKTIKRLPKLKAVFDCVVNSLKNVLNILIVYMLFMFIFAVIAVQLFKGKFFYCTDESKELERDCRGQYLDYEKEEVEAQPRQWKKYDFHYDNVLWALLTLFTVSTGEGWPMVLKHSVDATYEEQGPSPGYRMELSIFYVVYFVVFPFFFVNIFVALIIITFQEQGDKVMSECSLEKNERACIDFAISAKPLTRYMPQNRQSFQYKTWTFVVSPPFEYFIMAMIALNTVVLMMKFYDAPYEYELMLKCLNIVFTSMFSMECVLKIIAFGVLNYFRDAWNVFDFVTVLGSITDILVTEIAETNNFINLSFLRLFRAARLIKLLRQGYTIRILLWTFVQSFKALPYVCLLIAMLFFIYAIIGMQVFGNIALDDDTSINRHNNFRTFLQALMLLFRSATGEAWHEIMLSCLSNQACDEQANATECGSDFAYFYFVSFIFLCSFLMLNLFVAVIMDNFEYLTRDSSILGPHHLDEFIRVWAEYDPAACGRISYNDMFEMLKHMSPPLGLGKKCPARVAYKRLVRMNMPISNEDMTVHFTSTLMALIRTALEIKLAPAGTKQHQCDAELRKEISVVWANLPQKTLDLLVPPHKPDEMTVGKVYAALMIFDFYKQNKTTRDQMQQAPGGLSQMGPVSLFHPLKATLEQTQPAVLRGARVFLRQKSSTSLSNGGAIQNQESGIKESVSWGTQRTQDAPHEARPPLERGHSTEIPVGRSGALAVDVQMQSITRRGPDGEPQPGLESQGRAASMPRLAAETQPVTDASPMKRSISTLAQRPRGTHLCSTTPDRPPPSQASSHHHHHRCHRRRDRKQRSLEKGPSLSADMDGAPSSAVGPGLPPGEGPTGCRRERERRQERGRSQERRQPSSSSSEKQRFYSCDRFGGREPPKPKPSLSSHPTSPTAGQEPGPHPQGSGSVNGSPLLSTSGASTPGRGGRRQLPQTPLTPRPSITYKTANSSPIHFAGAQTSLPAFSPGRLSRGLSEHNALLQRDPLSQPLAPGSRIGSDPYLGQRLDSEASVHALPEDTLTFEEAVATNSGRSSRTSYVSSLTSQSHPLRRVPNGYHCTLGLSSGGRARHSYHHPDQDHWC
- EXPERIMENTAL_DETAILS: Inhibition of N-type Cav2.2 channel (unknown origin) by FLIPR assay
- MEASUREMENT_CONDITIONS: read-out: pIC50 (converted)
Exam item: assign Fulfilled to entries whose IC50 is below 900 nM and Not fulfilled to entries at or above 900 nM. Note that a value of exactly 900 nM receives Not fulfilled.

Here are 5 compounds together with their reported answers.
>  <MOL_SMILES>
CN[C@@H](CC(C)C)C(=O)N[C@@H]1CC[C@H]2CN(S(=O)(=O)c3cccc(C(F)(F)F)c3)C[C@H]21

>  <CATEGORY_LABEL>
Fulfilled

$$$$
>  <MOL_SMILES>
CN[C@@H](CC(C)C)C(=O)N[C@H]1CC[C@@H]2CN(c3cccc(C(F)(F)F)c3)C[C@@H]21

>  <CATEGORY_LABEL>
Not fulfilled

$$$$
>  <MOL_SMILES>
CN[C@@H](CC(C)C)C(=O)N[C@H]1CC[C@@H]2CN(S(=O)(=O)c3ccc(C(F)(F)F)cc3)C[C@@H]21

>  <CATEGORY_LABEL>
Fulfilled

$$$$
>  <MOL_SMILES>
CC(C)(C)C[C@H](N)C(=O)N[C@H]1CC[C@@H]2CN(S(=O)(=O)c3ccc(C(F)(F)F)cc3)C[C@@H]21

>  <CATEGORY_LABEL>
Not fulfilled

$$$$
>  <MOL_SMILES>
CN[C@@H](CC(C)(C)C)C(=O)N[C@H]1CC[C@@H]2CN(S(=O)(=O)c3ccc(C(F)(F)F)cc3)C[C@@H]21

>  <CATEGORY_LABEL>
Fulfilled

$$$$

State whether 900 nM exceeds IC50 recorded for CN[C@@H](CC(C)C)C(=O)N[C@@H]1CC[C@H]2CN(S(=O)(=O)c3ccc(C(F)(F)F)cc3)C[C@H]21 .
Fulfilled

State whether 900 nM exceeds IC50 recorded for CCN[C@@H](CC(C)(C)C)C(=O)N[C@H]1CC[C@@H]2CN(S(=O)(=O)c3ccc(C(F)(F)F)cc3)C[C@@H]21 .
Fulfilled
